Hello, the source for this data is paper PMC7232676, in case you need it.

Below are IC50 values recorded for InhA (Mycobacterium tuberculosis, UniProt P9WGR1).

mol	units	IC50
NCc1cccc(NS(=O)(=O)/C=C/c2cccc(C(F)(F)F)c2)c1	µM	4
NCc1cccc(NS(=O)(=O)c2cc3ccccc3s2)c1	µM	6
Cc1c(S(=O)(=O)Nc2cccc(CN)c2)sc2ccc(F)cc12	µM	0.25
NCc1ccc(NS(=O)(=O)/C=C/c2cccc(C(F)(F)F)c2)cc1	µM	9

###

target: InhA (Mycobacterium tuberculosis); assay: InhA enzymatic assay (NADH oxidation at 340 nm, 2-trans-octanoyl-CoA substrate); type: biochemical; conditions: supplementary CSV; read-out: % inhibition
Sequence (P9WGR1 whole entry, looked up): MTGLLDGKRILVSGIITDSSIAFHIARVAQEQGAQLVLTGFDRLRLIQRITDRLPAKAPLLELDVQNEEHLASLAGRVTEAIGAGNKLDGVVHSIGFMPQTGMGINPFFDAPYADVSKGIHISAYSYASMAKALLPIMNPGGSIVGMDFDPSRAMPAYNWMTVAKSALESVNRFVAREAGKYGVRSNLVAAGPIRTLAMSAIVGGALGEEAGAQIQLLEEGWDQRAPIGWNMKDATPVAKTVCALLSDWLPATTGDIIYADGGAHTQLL
// reported inhibition at 100 µM per item

mol	censoringSign	inhibition at 100 µM [%]
NCc1cccc(NS(=O)(=O)CCc2cccc3ccccc23)c1	=	17
O=C(O)c1ccc(NS(=O)(=O)/C=C/c2cccc(C(F)(F)F)c2)cc1	=	0
NCc1cccc(NS(=O)(=O)/C=C/c2cccc(C(F)(F)F)c2)c1	>	90
Cc1c(S(=O)(=O)Nc2cccc(CN)c2)sc2ccc(F)cc12	>	90
CNCc1ccc(NS(=O)(=O)/C=C/c2cccc(C(F)(F)F)c2)cc1	=	0
CC(C)(C)OC(=O)Nc1ccc(NS(=O)(=O)/C=C/c2cccc(C(F)(F)F)c2)cc1	=	11
Cc1c(S(=O)(=O)Nc2cccc(CN)c2)sc2ccc(Cl)cc12	>	90
O=S(=O)(/C=C/c1cccc(C(F)(F)F)c1)Nc1ccccc1	=	54
Nc1ccc(NS(=O)(=O)/C=C/c2cccc(C(F)(F)F)c2)cc1	=	6
O=S(=O)(/C=C/c1cccc(C(F)(F)F)c1)NC1CCNCC1	=	15
CC(=O)NCc1ccc(NS(=O)(=O)/C=C/c2cccc(C(F)(F)F)c2)cc1	=	25
